B1: HDAC6 (parent)
chain: QYMNEGELRVLADTYDSVYLHPNS

Variants of: B1
protocol text: protein stability index of a GFP-peptide fusion (GPS, HEK-293T) (PSI 1-6); higher = more stable;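 note: lentivirally expressed fusions sorted by FACS into six bins by GFP to DsRed ratio, PSI derived from sequencing read proportions per bin multiplied by bin number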
condition info: c terminus: a fixed tail appended
Lab note: compare protein stability index against 2. Equal or greater, write yes. Smaller, write no.

Q: # bool: protein stability index of QYMMEGELRVLADTYDSVYLHPNS [N4M] >= 2
Ans: yes

Q: # bool: protein stability index of QYMNEMELRVLADTYDSVYLHPNS [G6M] >= 2
Ans: no

Q: # bool: protein stability index of QYMNEGELRVLADVYDSVYLHPNS [T14V] >= 2
Ans: no

Q: # bool: protein stability index of QYMNEGELRVLADTYDSVYLGPNS [H21G] >= 2
Ans: no

Q: # bool: protein stability index of QYMNEGELRVLADTYDSVCLHPNS [Y19C] >= 2
Ans: yes

Q: # bool: protein stability index of AYMNEGELRVLADTYDSVYLHPNS [Q1A] >= 2
Ans: no

Q: # bool: protein stability index of DYMNEGELRVLADTYDSVYLHPNS [Q1D] >= 2
Ans: yes

Q: # bool: protein stability index of QYMNEGELRVLADTYDSVYLHPRS [N23R] >= 2
Ans: yes

Q: # bool: protein stability index of QYMNEGELRVLEDTYDSVYLHPNS [A12E] >= 2
Ans: yes

Q: # bool: protein stability index of QYMNEGELLVLADTYDSVYLHPNS [R9L] >= 2
Ans: no

Q: # bool: protein stability index of QYMNEGELRVLACTYDSVYLHPNS [D13C] >= 2
Ans: no

Q: # bool: protein stability index of QYMNEGELRVLADTYDSVFLHPNS [Y19F] >= 2
Ans: yes

Q: # bool: protein stability index of QYMNEPELRVLADTYDSVYLHPNS [G6P] >= 2
Ans: yes

Q: # bool: protein stability index of QYRNEGELRVLADTYDSVYLHPNS [M3R] >= 2
Ans: yes

Q: # bool: protein stability index of QYMNEGELRVLADTYDNVYLHPNS [S17N] >= 2
Ans: yes

Q: # bool: protein stability index of QYMNEGELRVLADTYDSVYLHTNS [P22T] >= 2
Ans: no

Q: # bool: protein stability index of FYMNEGELRVLADTYDSVYLHPNS [Q1F] >= 2
Ans: yes

Q: # bool: protein stability index of QYMNEGELRVLADTCDSVYLHPNS [Y15C] >= 2
Ans: yes

Q: # bool: protein stability index of QYMNEGELRVLADTYDSVYLTPNS [H21T] >= 2
Ans: no
